Target: Menin-MLL interaction (Homo sapiens, UniProt O00255)
Construct: GST-MENIN (1-615 aa) and FITC-MLL15-43 were diluted with an FP buffer
Sequence (O00255 1-615 isoform O00255-1): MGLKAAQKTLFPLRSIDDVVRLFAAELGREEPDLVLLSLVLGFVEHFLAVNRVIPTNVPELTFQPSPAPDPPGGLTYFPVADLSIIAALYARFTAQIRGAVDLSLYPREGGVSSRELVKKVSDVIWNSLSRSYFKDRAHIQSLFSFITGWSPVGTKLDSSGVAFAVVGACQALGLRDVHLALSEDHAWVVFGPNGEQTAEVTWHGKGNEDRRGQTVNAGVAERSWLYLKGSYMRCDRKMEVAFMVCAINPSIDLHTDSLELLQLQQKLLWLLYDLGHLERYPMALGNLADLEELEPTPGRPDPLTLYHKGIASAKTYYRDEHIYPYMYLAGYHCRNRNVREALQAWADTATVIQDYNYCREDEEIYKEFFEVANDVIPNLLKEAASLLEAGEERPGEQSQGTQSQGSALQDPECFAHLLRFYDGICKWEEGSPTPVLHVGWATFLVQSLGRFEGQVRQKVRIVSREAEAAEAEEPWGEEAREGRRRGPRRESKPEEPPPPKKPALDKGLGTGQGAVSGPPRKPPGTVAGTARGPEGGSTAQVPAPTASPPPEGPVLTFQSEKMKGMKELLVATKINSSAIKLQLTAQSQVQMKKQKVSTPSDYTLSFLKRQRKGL
Experiment: Fluorescence polarization assay of Menin-MLL interaction
Details: GST-MENIN (1-615 aa) 8 nM, FITC-MLL15-43 8 nM; read-out: IC50 (nM) for inhibitory activity against Menin-MLL protein binding
Description: The binding activity of the compounds for the menin protein was determined by a fluorescence polarization assay. GST-MENIN (1-615 aa) and FITC-MLL15-43 were diluted with an FP buffer (50 mM Tris-HCl pH 7.5, 50 mM NaCl, 1 mM DTT, 0.01% BSA), and the mixed solution of GST-MENIN (1-615 aa) at a final concentration of 8 nM and FITC-MLL15-43 at a final concentration of 8 nM was added to a black 384-well microtiter plate at 10 µL/well. […]
Property: IC50; scope: individual compounds

# COMPOUND, RESULT
data = [
    ("C=C1C[C@@H]2CC[C@H]1[C@@H](C(=O)N1CCC3(CC1)CN(c1ncnnc1Oc1ccc(F)cc1-c1cncnc1C1CC1)C3)N2 [Compound 33]", "< 50 nM"),
    ("C=C1C[C@@H]2CC[C@H]1[C@@H](C(=O)N1CCC3(CC1)CN(c1ncnnc1Oc1ccc(F)cc1-c1cc(C(F)(F)F)cnc1C1CC1)C3)N2 [Compound 54]", "< 50 nM"),
    ("C=C1C[C@@H]2CC[C@H]1[C@@H](C(=O)N1CCC3(CC1)CN(c1ncnnc1Oc1ccc(F)cc1C(=O)N(CC)C(C)C)C3)N2 [Compound 27]", "< 50 nM"),
]

// next entry
Inquiry: Observed IC50 on Menin-MLL interaction (Homo sapiens, UniProt O00255) for C=C1C[C@@H]2CC[C@H]1[C@@H](C(=O)N1CCC3(CC1)CN(c1ncnnc1Oc1ccc(F)cc1-c1cccnc1C1CC1)C3)N2 [Compound 31] , please.
Reply text: < 50 nM

----------
test system: MV-4-11 cells; assay: In vitro cell activity assay (CCK-8 proliferation), MV-4-11; format: cell-based; conditions: Homo sapiens, MV4-11; CCK-8, 72-120 h; read-out: IC50 (nM) for inhibitory activity against proliferation of MV-4-11 cells
Property: IC50; scope: individual compounds

Inquiry: So what does the record say about IC50 for C=C1C[C@@H]2CC[C@H]1[C@@H](C(=O)N1CCC3(CC1)CN(c1ncnnc1Oc1ccc(F)cc1-c1cncnc1C1CC1)C3)N2 [Compound 33] ?
Reply text: < 50 nM
